Readings of MIC for the listed compounds
- Tested on: Salmonella (S.) enterica (clinical isolate)
- protocol: MIC measurement (broth microdilution)
- Format: cell-based
- condition_context: source 204/22, 18–24 h at 37 °C
property_label: MIC

1. N=C(N)c1cccc(C[C@H](NS(=O)(=O)c2cccc(-c3ccc(Cl)cc3Cl)c2)C(=O)N2CCC(CN)CC2)c1 = > 800 µM
2. N=C(N)c1cccc(C[C@H](NS(=O)(=O)c2cccc(-c3ccc(Cl)cc3Cl)c2)C(=O)N2CCC(CCN)CC2)c1 = > 800 µM
3. COc1ccc(-c2cccc(S(=O)(=O)N[C@@H](Cc3cccc(C(=N)N)c3)C(=O)N3CCC(N)CC3)c2)c(OC)c1 = >800 µM
4. N=C(N)c1cccc(C[C@H](NS(=O)(=O)c2cccc(-c3ccc(Cl)cc3Cl)c2)C(=O)N2CCC(N)CC2)c1 = > 800 µM
5. COc1ccc(-c2cccc(S(=O)(=O)N[C@@H](Cc3cccc(C(=N)N)c3)C(=O)N3CCC(NC(=O)NC(C)(C)C)CC3)c2)c(OC)c1 = >800 µM
